# Tested on: HBV viral production in AD38 cells
# Experiment: Viral load production in AD38 cells by quantitative PCR of the HBV core sequence in supernatant
# Format: cell-based
# Run parameters: Hepatitis B virus, 144 h; 10 μM compound, 6 days at 37° C., viral load in supernatant compared against DMSO control wells; read-out: AD38 Viral Load (CpAM/DMSO %) at 10 μM
# Protocol: Example 56: Assay Measuring Activity of Compounds on Viral Production in and on Viability of AD38 Cells AD38 cells were then re-suspended with 10 mL of Treatment Medium and counted. […] Viral load production was assayed by quantitative PCR of the core sequence. […] Viral load was quantitated against known standards by using ViiA™ 7 Software. […]
Decide using activity at 10 µM alone. Strictly below 10%: satisfied. Equal to or above 10%: not satisfied.

Compound	Tested target	Cat
O=C(NCCc1ccc(-n2cncn2)cc1)c1ccc2c(c1)NC(=O)c1ccccc1S2 [Compound 1249]	HBV viral production in AD38 cells	not satisfied
CC(=O)N1CCC(CNC(=O)c2ccc3c(c2)NC(=O)c2ccccc2S3)CC1 [Compound 1601]	HBV viral production in AD38 cells	not satisfied
O=C(Nc1ccncc1)c1ccc2c(c1)NC(=O)c1cccc(F)c1S2 [Compound 1393]	HBV viral production in AD38 cells	not satisfied
O=C(Nc1ccc(Cl)cn1)c1ccc2c(c1)NC(=O)c1cc(F)ccc1S2 [Compound 1338]	HBV viral production in AD38 cells	not satisfied
O=C(NCc1scnc1-c1ccccc1)c1ccc2c(c1)NC(=O)c1ccccc1S2 [Compound 1605]	HBV viral production in AD38 cells	not satisfied

Now, please, on to the next compound.
is_below(activity at 10 µM, 10%) for CCc1cccc(CCNC(=O)c2ccc3c(c2)NC(=O)c2ccccc2S3)c1 [Compound 1260] ?
satisfied

// provenance: patent US10183936B2
